- method.notes: chemical genetic growth profiling, strain panel (AID 1159580);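 also: tested at 20 µM; growth read once vehicle control cultures reached saturation at 30 °C; 1 = growth at the plate median or of vehicle wells; lower values mean less growth of the strain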
- measurement.setup: S. cerevisiae deletion strains, growth OD, locus YMR263W, strain SAP30, stronger effect = lower value
Hit rate of the full screen: of about 5,500 compounds, about 2,000 (36%) were called active. Not shown: some 18% with an inconclusive outcome. The list shows a part of the results.
Field: normalized growth. Provide a value for each of the compounds that follow.
Lab note: record just the number, no unit beside it.

Query string: I would be grateful if you could share the reported normalized growth for `NCCS(=O)O` .
Result string: 1.01

Query string: normalized growth lookup needed for `O=[N+]([O-])c1cnc2ccccn12` , thanks.
Result string: 1.02

Query string: Endpoint output: normalized growth of CCC1(O)C(=O)OCc2c1cc1n(c2=O)Cc2cc3ccccc3nc2-1 (stereo unspecified) . Value?
Result string: 0.98

Query string: Name the reported normalized growth value associated with the compound `NC(=O)c1ccc([N+](=O)[O-])cc1Cl`
Result string: 0.968

Query string: Please look up its normalized growth: `COC(CNc1cccc(Cl)c1C#N)OC`
Result string: 1.01

Query string: normalized growth lookup needed for Cc1ccccc1N1C(=O)c2cc(S(N)(=O)=O)c(Cl)cc2NC1C (stereo unspecified) , thanks.
Result string: 1.01

====

- method.notes: chemical genetic growth profiling, strain panel (AID 1159580);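 also: tested at 20 µM; growth read once vehicle control cultures reached saturation at 30 °C; 1 = growth at the plate median or of vehicle wells; lower values mean less growth of the strain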
- measurement.setup: S. cerevisiae deletion strains, growth OD, locus YNL298W, strain CLA4, stronger effect = lower value
Out of some 5,500 compounds screened, about 2,000 (36%) were called active. Another 18% or so got no clear call; they are omitted. The list shows a part of the results.
readout.name: normalized growth
Reply with just the number.

Query string: // query normalized growth value for entry `O=C(CCCN1CCC(O)(c2ccc(Cl)cc2)CC1)c1ccc(F)cc1`
Result string: 1.02

Query string: Using the record for `O=C(O)c1ccccc1O` , report its normalized growth.
Result string: 1.02

Query string: Query (molecule): CC1=CC(=O)C2C(C)(C)CCC[C@]2(C)[C@@]1(O)CCc1ccoc1 (some centres not stated) ; field requested: normalized growth
Result string: 0.996

Query string: Tell me the measured normalized growth of `O=C(O)c1cc(O)ccc1O` , please.
Result string: 0.994

Query string: normalized growth for `C/C=C(\C)C(=O)O[C@@H]1c2c(ccc3ccc(=O)oc23)OC(C)(C)[C@@H]1OC(C)=O` ?
Result string: 1.01

Query string: Please give the measured normalized growth for this molecule: CC1Cc2ccccc2N1NC(=O)c1ccc(Cl)c(S(N)(=O)=O)c1 (configuration not stated)
Result string: 0.995

Query string: So what's the measured normalized growth for this one? CC[C@H]1CN2CCC1C[C@@H]2[C@@H](O)c1ccnc2ccc(OC)cc12 (some centres not stated)
Result string: 1.01

Query string: What does the record list as normalized growth for `O=C(CCCN1CCC2(CC1)C(=O)NCN2c1ccccc1)c1ccc(F)cc1` ?
Result string: 0.999

Query string: Reported normalized growth, molecule C[C@@H]1O[C@@H](O[C@H]2CC[C@]3(C=O)C4CC[C@]5(C)[C@@H](C6=CC(=O)OC6)CC[C@]5(O)C4CC[C@]3(O)C2)[C@H](O)[C@H](O)[C@H]1O (some centres not stated) : ____
Result string: 1

Query string: Can you look up the measured normalized growth of CC1(C)S[C@@H]2[C@H](NC(=O)C(C(=O)O)c3ccccc3)C(=O)N2[C@H]1C(=O)O (some centres not stated) for me?
Result string: 0.99

Query string: Given `COc1ccccc1N1CCN(CCCNc2cc(=O)n(C)c(=O)n2C)CC1` , state its recorded normalized growth.
Result string: 0.982

Query string: Field request: normalized growth | item: COP(N)(=O)SC (configuration not stated)
Result string: 1.02

Query string: Find the recorded normalized growth belonging to CC1(C)Oc2ccc3ccc(=O)oc3c2CC1O (configuration not stated) and report it.
Result string: 1

Query string: Find the recorded normalized growth belonging to Oc1ccc2c3c1OC1[C@@H](O)CC[C@@]4(O)[C@@H](C2)N(CC2CCC2)CC[C@]314 (some centres not stated) and report it.
Result string: 1.01

Query string: Fill in the blank: the reported normalized growth of `CC1(C)S[C@@H]2[C@H](NC(=O)[C@@H](N)c3ccc(O)cc3)C(=O)N2[C@H]1C(=O)O` is ____.
Result string: 0.984

Query string: If you can, please state the reported normalized growth value of `C[C@]12CCC(=O)C=C1CCc1ccc(O)cc12` .
Result string: 0.987

Query string: Which normalized growth value belongs to `O=c1c(O)cc([C@H]2Oc3cc(O)cc(O)c3C[C@H]2O)cc2c([C@H]3Oc4cc(O)cc(O)c4C[C@H]3O)cc(O)c(O)c12` ?
Result string: 1.02

Query string: What does the record list as normalized growth for NC[C@@H]1O[C@H](O[C@@H]2[C@@H](CO)OC(O[C@@H]3[C@@H](O)[C@H](N)C[C@H](N)[C@H]3O[C@H]3O[C@H](CO)[C@@H](O)[C@H](O)[C@H]3N)[C@@H]2O)[C@H](N)[C@@H](O)[C@@H]1O (some centres not stated) ?
Result string: 0.989

Query string: For the molecule `CSc1nc(NC(C)C)nc(NC(C)C)n1` , what normalized growth is on record?
Result string: 1

Query string: // normalized growth lookup, key: `CCOC(=O)C1=C(O)C(=O)N(Cc2ccccc2)C1`
Result string: 1

Query string: Field request: normalized growth | item: `CN(C)C(=O)C(CCN1CCC(O)(c2ccc(Cl)cc2)CC1)(c1ccccc1)c1ccccc1`
Result string: 1

Query string: Bench note: what normalized growth did `CC(C)Nc1nc(Cl)nc(NC(C)C)n1` show?
Result string: 1.02

Query string: normalized growth lookup needed for COC(=O)CC1C(C)(C)C(OC(C)=O)[C@@H]2[C@@H](OC(C)=O)[C@]34O[C@@]2(O)[C@]1(C)C3CC[C@]1(C)C4=CC(=O)O[C@H]1c1ccoc1 (some centres not stated) , thanks.
Result string: 1.01

Query string: What value of normalized growth has been recorded for this entry: `CC(=O)O[C@@H]1c2c(ccc3ccc(=O)oc23)OC(C)(C)[C@@H]1OC(=O)CC(C)C`
Result string: 1.02

Query string: Requested read-out: normalized growth. Entry: CC(C)(C)NCC(O)COc1cccc2c1C[C@H](O)[C@H](O)C2 (some centres not stated)
Result string: 0.983

Query string: Dear colleague, I am looking for the recorded normalized growth of the following molecule: CC1(C)C(=O)CC[C@@]2(C)C1C[C@@H](O)[C@@]1(C)C3=CC(=O)O[C@@H](c4ccoc4)[C@]3(C)CCC21 (some centres not stated)
Result string: 0.997

Query string: Consider the molecule `NC(=O)c1ccccc1O` and give its measured normalized growth.
Result string: 1.02

Query string: # query: normalized growth of entry `COC(=O)NC(=S)Nc1ccccc1NC(=S)NC(=O)OC`
Result string: 0.978

Query string: Which normalized growth value belongs to C[C@@H]1CC[C@@]23CCC4(C)[C@@](C=CC5[C@@]6(C)CC[C@H](O)C(C)(C)C6CC[C@]54C)(OC2=O)C3[C@H]1C (some centres not stated) ?
Result string: 1

Query string: What measured normalized growth goes with CC1(C)O[C@@H]2CC3C4C[C@H](F)C5=CC(=O)CC[C@]5(C)C4[C@@H](O)C[C@]3(C)[C@]2(C(=O)CO)O1 (some centres not stated) ?
Result string: 1

Query string: Name the recorded normalized growth for `CC[C@@]1(O)C(=O)OCc2c1cc1n(c2=O)Cc2cc3cc(O)ccc3nc2-1` .
Result string: 0.992

Query string: I'd like to know its normalized growth. The molecule in question is CC(=O)O[C@@H]1CC2C(C)(CC[C@H](O)C2(C)C)C2CC[C@]3(C)C(=CC(=O)O[C@H]3c3ccoc3)C21C (some centres not stated)
Result string: 0.985

====

- method.notes: chemical genetic growth profiling, strain panel (AID 1159580);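 also: tested at 20 µM; growth read once vehicle control cultures reached saturation at 30 °C; 1 = growth at the plate median or of vehicle wells; lower values mean less growth of the strain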
- measurement.setup: S. cerevisiae deletion strains, growth OD, locus YNL183C, strain NPR1, stronger effect = lower value
About 2,000 (36%) of roughly 5,500 compounds were called active. Another 18% or so got no clear call; they are omitted. This is one part of the list.
readout.name: normalized growth
A bare number is all that is needed in reply.

Query string: Tell me the measured normalized growth of `O=c1[nH][nH]c(=O)n1CCCc1cc2cccc3ccc4cccc1c4c32` , please.
Result string: 0.911

Query string: Consider the molecule `COc1ccc(-c2cc(=O)c3c(OC)c(OC)c(OC)c(OC)c3o2)cc1OC` and give its measured normalized growth.
Result string: 0.926

Query string: Need normalized growth of `COc1ccc(-c2cc(=O)c3c(O)cc(OC)cc3o2)cc1` , thanks.
Result string: 0.887

====

- method.notes: chemical genetic growth profiling, strain panel (AID 1159580);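 also: tested at 20 µM; growth read once vehicle control cultures reached saturation at 30 °C; 1 = growth at the plate median or of vehicle wells; lower values mean less growth of the strain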
- measurement.setup: S. cerevisiae deletion strains, growth OD, locus YML016C, strain PPZ1, stronger effect = lower value
Out of some 5,500 compounds screened, about 2,000 (36%) were called active. Another 18% or so got no clear call; they are omitted. Some of the results follow.
Assignment: determine reported normalized growth for the given compounds.
Answer with the value's number alone.

Query string: Can you look up the measured normalized growth of `Cc1ccc(C(C)C)c(O)c1C(=O)O` for me?
Result string: 0.977

Query string: Returns the measured normalized growth for the input compound. Input: `CCn1nc(C(=O)O)c(=O)c2cc3c(cc21)OCO3`
Result string: 1.01

Query string: Quick check: normalized growth of `COC1=CC(=O)C=C(OC)C1=O` ?
Result string: 0.994

Query string: Requested read-out: normalized growth. Entry: `COc1cc(O)c2c(=O)cc(-c3ccc(O)cc3)oc2c1`
Result string: 0.994

Query string: Would you mind telling me what normalized growth value was observed for `O=C(/C=C(\O)c1ccccc1)c1ccccc1O` ?
Result string: 0.633

Query string: Value lookup for normalized growth; key = `C/C=C(/C)C(=O)O[C@@H]1Cc2c(ccc3ccc(=O)oc23)OC1(C)C`
Result string: 0.987

Query string: Query (compound): CC1CCCC(C)N1NC(=O)c1ccc(Cl)c(S(N)(=O)=O)c1 (stereo not drawn) ; field requested: normalized growth
Result string: 0.991

Query string: So what does the record say about normalized growth for Cc1ccccc1N1C(=O)c2cc(S(N)(=O)=O)c(Cl)cc2NC1C (stereo not drawn) ?
Result string: 0.985

Query string: Tell me the measured normalized growth of CC1(C)Oc2ccc3ccc(=O)oc3c2CC1O (stereo not drawn) , please.
Result string: 1

Query string: // lookup normalized growth for CC(C)=CC1C(CO)C1(C)C (stereo not drawn)
Result string: 1.02

Query string: Which normalized growth value is on record for CC1Cc2ccccc2N1NC(=O)c1ccc(Cl)c(S(N)(=O)=O)c1 (stereo not drawn) ?
Result string: 1.01

Query string: Find the recorded normalized growth belonging to `O=C(CCCN1CCC(O)(c2ccc(Cl)cc2)CC1)c1ccc(F)cc1` and report it.
Result string: 0.915

Query string: I am curious: what normalized growth value has been reported for `NC(N)=Nc1ccc(Cl)cc1` ?
Result string: 1.02

Query string: Fill in: normalized growth of CCOC(=O)CC(SP(=S)(OC)OC)C(=O)OCC (stereo not drawn) is ___
Result string: 1.01

Query string: Request the reported normalized growth associated with `COc1ccc(-c2cc(=O)c3c(O)c(OC)c(O[C@H]4O[C@H](CO[C@@H]5O[C@@H](C)[C@H](O)[C@@H](O)[C@H]5O)[C@@H](O)[C@H](O)[C@H]4O)cc3o2)cc1`
Result string: 0.991

Query string: Need normalized growth, item `CCc1ccc2c(O)c3c(cc2c1C(=O)OC)C(=O)c1c(O)ccc(O)c1C3=O`
Result string: 0.983

Query string: Quick one: normalized growth of `CN(C)C(=O)C(CCN1CCC(O)(c2ccc(Cl)cc2)CC1)(c1ccccc1)c1ccccc1` ?
Result string: 0.998

Query string: Fill in the blank: the reported normalized growth of `COc1ccc(-c2cc(=O)c3c(O)cc(O)cc3o2)cc1` is ____.
Result string: 1.02
